Biological target: T1, RAPGEF6, Q8TEU7
T1 sequence (Q8TEU7 525-625, limits assumed, looked up): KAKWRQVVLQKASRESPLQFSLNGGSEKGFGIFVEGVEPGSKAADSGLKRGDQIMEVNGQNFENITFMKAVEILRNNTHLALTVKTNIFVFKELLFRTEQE
Assay: holdup assay
Set-up: key: below the threshold = too weak to quantify, mostly under pKd 3.1 to 4
Settings: plain residues with an end cap or a label only (N-terminal biotin on a linker: ttds)
Measured metric: pKd

# annotated cases, reported pKd shown
Binder | pKd
VLRLQSETSV [VANGL1, Q8TAA9] | below the threshold
PKTPPTDTSV [KIR3DL3, Q8N743] | below the threshold
SRPQRTQTQV [HPV67-E6, A4U7F2] | below the threshold
STLTIFETAL [ABCC4, O15439] | below the threshold

Shifting focus to the binder that follows.
Requested field: pKd. Item: SSRTRRETQL [HPV16-E6, P03126] 3.66
